Assay Comment: Oral absorbability test in mice (drug concentration in plasma)
Set-up: species or system 7-Week-old female CDF1 mice
Conditions Used: mouse, in vivo, po, 100 mg/kg
Outcome Measure: concentration at 1 h (ng/mL)
Report as a plain number; the unit ng/mL is understood.

Exercise: Specify measured concentration at 1 h for O=C(C(c1ccccc1)c1ccccc1)N1CCN(CC(O)COc2cccc3ncccc23)CC1.O=C(O)/C=C/C(=O)O (stereo not shown) .
Key: 21800

====

Assay Comment: Oral absorbability in dogs (drug concentration in plasma)
Type: in vivo, Male beagles (dog)
Conditions Used: dog, plasma; male beagles, oral 50 mg/kg, 9 hr; read-out: Concentration in plasma, Average
Outcome Measure: concentration at 9 h (ng/mL)
Report as a plain number; the unit ng/mL is understood.

Exercise: Specify measured concentration at 9 h for O=C(C(c1ccccc1)c1ccccc1)N1CCN(CC(O)COc2cccc3ncccc23)CC1.O=C(O)/C=C/C(=O)O (stereo not shown) .
Key: 1210

====

Assay Comment: Oral absorbability in dogs (drug concentration in plasma)
Format: in vivo, Male beagles (dog)
Conditions Used: dog, in vivo, po, 50 mg/kg
Outcome Measure: concentration at 1 h (µg/mL)
Report as a plain number; the unit µg/mL is understood.

Exercise: Specify measured concentration at 1 h for O=C(C(c1ccccc1)c1ccccc1)N1CCN(CC(O)COc2cccc3ncccc23)CC1 (stereo not shown) [compound No. 1] .
Key: 4.53

====

Assay Comment: Oral absorbability in dogs (drug concentration in plasma)
Type: in vivo, Male beagles (dog)
Conditions Used: dog, plasma; male beagles, oral 50 mg/kg, 6 hr; read-out: Concentration in plasma, Average
Outcome Measure: concentration at 6 h (ng/mL)
Report as a plain number; the unit ng/mL is understood.

Exercise: Specify measured concentration at 6 h for O=C(C(c1ccccc1)c1ccccc1)N1CCN(CC(O)COc2cccc3ncccc23)CC1.O=C(O)/C=C/C(=O)O (stereo not shown) [compound No. 2] .
Key: 3700

====

Assay Comment: Oral absorbability in dogs (drug concentration in plasma)
Format: in vivo, Male beagles (dog)
Conditions Used: dog, plasma; male beagles, oral 50 mg/kg, 1.5 hr; read-out: Concentration in plasma, Average
Outcome Measure: concentration at 1.5 h (ng/mL)
Report as a plain number; the unit ng/mL is understood.

Exercise: Specify measured concentration at 1.5 h for O=C(C(c1ccccc1)c1ccccc1)N1CCN(CC(O)COc2cccc3ncccc23)CC1.O=C(O)/C=C/C(=O)O (stereo not shown) .
Key: 12700

====

Assay Comment: Oral absorbability in dogs (drug concentration in plasma)
Assay type: in vivo, Male beagles (dog)
Conditions Used: dog, plasma; male beagles, oral 50 mg/kg, 2 hr; read-out: Concentration in plasma, Average
Outcome Measure: concentration at 2 h (ng/mL)
Report as a plain number; the unit ng/mL is understood.

Exercise: Specify measured concentration at 2 h for O=C(C(c1ccccc1)c1ccccc1)N1CCN(CC(O)COc2cccc3ncccc23)CC1.O=C(O)/C=C/C(=O)O (stereo not shown) .
Key: 10500

====

Assay Comment: Oral absorbability in dogs (drug concentration in plasma)
Assay type: in vivo, Male beagles (dog)
Conditions Used: dog, in vivo, po, 50 mg/kg
Outcome Measure: concentration at 4 h (ng/mL)
Report as a plain number; the unit ng/mL is understood.

Exercise: Specify measured concentration at 4 h for O=C(C(c1ccccc1)c1ccccc1)N1CCN(CC(O)COc2cccc3ncccc23)CC1 (stereo not shown) [compound No. 1] .
Key: 2430
